Conditions: human;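 also: human clinical data: severe hepatitis, meaning potentially life-threatening liver failure or clinically observed cases, the value counts how many indexed literature references report it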
Items are presented alongside their recorded Hepatotoxicity (severe hepatitis).
The reply should be a number, written without any unit.

Query string: Bench note: what Hepatotoxicity (severe hepatitis) did CC(C)(C)NC(=O)[C@H]1CC[C@H]2[C@@H]3CC[C@H]4NC(=O)C=C[C@]4(C)[C@H]3CC[C@]12C [FINASTERIDE] show?
Result string: 0

Query string: Again, but for CC(/C=C1\SC(=S)N(CC(=O)O)C1=O)=C\c1ccccc1
Result string: 1

Query string: Also NC(=O)N1C(=O)/C(=C(\O)c2cccs2)c2cc(Cl)ccc21 , if possible.
Result string: 0

Query string: Then what about the compound NCC1(CC(=O)O)CCCCC1 ?
Result string: 0

Measured values drawn from ChEMBL document CHEMBL3137667 for this set.
